B1: CPEB3 Ribozyme (parent)
chain: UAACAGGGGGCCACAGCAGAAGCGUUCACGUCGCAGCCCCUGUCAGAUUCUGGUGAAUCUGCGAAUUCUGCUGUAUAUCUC

- Variants of: B1
- measurement.protocol: self-cleavage, relative activity (ratio to wild type); higher = more cleavage; in vitro, sequencing
parameter: self-cleavage
Could you keep your reply to the number by itself?

Data request, read-out self-cleavage, for C11G U80C 0.55

Data request, read-out self-cleavage, for A28C U48C 0.46

Data request, read-out self-cleavage, for G7A A77U 0.26

Data request, read-out self-cleavage, for G70U A77G 0.4

Data request, read-out self-cleavage, for C39A U60C 0.13

Data request, read-out self-cleavage, for A5U U26A 1.05

Data request, read-out self-cleavage, for A15U C79G 1.08

Data request, read-out self-cleavage, for U1A G10C 0.36

Data request, read-out self-cleavage, for U41C U60C 0.55

Data request, read-out self-cleavage, for G24A G55A 0.1

Data request, read-out self-cleavage, for G19A U66G 0.51

Data request, read-out self-cleavage, for A28U C29G 0.1

Data request, read-out self-cleavage, for U31C A64G 0.64

Data request, read-out self-cleavage, for A3U G9A 0.58

Data request, read-out self-cleavage, for U25C C39A 0.23

Data request, read-out self-cleavage, for A45U C71A 0.1

The values you see were collected from the RNAGym collection of RNA variant scans (doi:10.1093/nar/gkz1192).
